Origin of the recorded values: ChEMBL document CHEMBL1156997

TARGET SYSTEM: Beta-lactamase (Enterobacter cloacae, UniProt P05364)
Sequence (P05364 whole entry): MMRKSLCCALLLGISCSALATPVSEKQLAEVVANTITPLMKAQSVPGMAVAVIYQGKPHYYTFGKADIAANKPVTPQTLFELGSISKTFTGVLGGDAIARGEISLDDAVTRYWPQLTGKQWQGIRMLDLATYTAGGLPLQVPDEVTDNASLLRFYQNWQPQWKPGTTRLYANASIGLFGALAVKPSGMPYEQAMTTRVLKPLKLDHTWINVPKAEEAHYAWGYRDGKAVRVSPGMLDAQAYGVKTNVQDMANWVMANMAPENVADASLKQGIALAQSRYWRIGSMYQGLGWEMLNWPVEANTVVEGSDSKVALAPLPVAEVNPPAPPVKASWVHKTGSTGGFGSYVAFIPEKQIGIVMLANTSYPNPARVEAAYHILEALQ
MEASUREMENT NOTES: Inhibition of Enterobacter colacae P99 Beta-lactamase
pIC50: −log10 of the molar value.
RESULT TYPE: pIC50

>>> measured_result("O=S(=O)(NCB(O)O)c1cc2c(Cl)ccc(Cl)c2s1")
6.21

###

TARGET SYSTEM: Beta-lactamase (Pseudomonas aeruginosa (strain ATCC 15692 / PAO1 / 1C / PRS 101 / LMG12228), UniProt P24735)
Sequence (P24735 whole entry): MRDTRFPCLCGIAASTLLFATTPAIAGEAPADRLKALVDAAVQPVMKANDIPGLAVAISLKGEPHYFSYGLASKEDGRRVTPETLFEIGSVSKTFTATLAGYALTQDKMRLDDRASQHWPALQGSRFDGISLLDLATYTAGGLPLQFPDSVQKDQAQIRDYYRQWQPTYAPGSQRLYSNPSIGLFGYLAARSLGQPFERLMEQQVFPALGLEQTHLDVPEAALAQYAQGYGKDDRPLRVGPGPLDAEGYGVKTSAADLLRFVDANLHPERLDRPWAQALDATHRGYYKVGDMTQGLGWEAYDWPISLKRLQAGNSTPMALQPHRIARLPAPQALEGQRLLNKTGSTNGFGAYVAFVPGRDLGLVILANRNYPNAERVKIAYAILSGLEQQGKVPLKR
MEASUREMENT NOTES: Inhibition of Pseudomonas aeruginosa beta-lactamase AmpC
pIC50: −log10 of the molar value.
RESULT TYPE: pIC50

>>> measured_result("O=S(=O)(NCB(O)O)c1cc2c(Cl)ccc(Cl)c2s1")
5.92

###

MEASUREMENT NOTES: Inhibition of Pseudomonas aeruginosa beta-lactamase TEM-1
pIC50: −log10 of the molar value.
RESULT TYPE: pIC50

>>> measured_result("O=S(=O)(NCB(O)O)c1cc2c(Cl)ccc(Cl)c2s1")
5.96

###

TARGET SYSTEM: Beta-lactamase (Acinetobacter baumannii)
Sequence (Q8RLA6 whole entry): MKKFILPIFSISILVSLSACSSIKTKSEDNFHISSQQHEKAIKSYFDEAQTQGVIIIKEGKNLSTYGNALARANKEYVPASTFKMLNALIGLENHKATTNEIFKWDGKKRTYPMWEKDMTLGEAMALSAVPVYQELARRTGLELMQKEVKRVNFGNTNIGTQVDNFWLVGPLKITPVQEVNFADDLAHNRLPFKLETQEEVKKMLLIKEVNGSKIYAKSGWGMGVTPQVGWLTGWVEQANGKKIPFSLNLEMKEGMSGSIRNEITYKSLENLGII
MEASUREMENT NOTES: Inhibition of Acinetobacter baumannii beta-lactamase OXA40
pIC50: −log10 of the molar value.
RESULT TYPE: pIC50

>>> measured_result("O=S(=O)(NCB(O)O)c1cc2c(Cl)ccc(Cl)c2s1")
5.25

###

TARGET SYSTEM: Beta-lactamase SHV-5 (Klebsiella pneumoniae, UniProt P0A3M1)
Sequence (P0A3M1 whole entry): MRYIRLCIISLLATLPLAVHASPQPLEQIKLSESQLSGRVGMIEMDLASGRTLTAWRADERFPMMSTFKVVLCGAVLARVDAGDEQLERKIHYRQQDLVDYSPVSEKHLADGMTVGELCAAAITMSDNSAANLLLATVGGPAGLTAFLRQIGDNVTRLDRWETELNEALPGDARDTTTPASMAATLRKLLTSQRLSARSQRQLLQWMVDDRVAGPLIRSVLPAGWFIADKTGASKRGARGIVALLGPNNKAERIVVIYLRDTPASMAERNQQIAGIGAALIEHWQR
MEASUREMENT NOTES: Inhibition of Klebsiella pneumoniae beta-lactamase SHV5
RESULT TYPE: IC50

>>> measured_result("O=S(=O)(NCB(O)O)c1cc2c(Cl)ccc(Cl)c2s1")
"570 nM"
